These measurements were taken from paper PMC2849849.

- subject of test: α7-nAChR (Mus musculus, UniProt P49582)
- Sequence (P49582 23-502): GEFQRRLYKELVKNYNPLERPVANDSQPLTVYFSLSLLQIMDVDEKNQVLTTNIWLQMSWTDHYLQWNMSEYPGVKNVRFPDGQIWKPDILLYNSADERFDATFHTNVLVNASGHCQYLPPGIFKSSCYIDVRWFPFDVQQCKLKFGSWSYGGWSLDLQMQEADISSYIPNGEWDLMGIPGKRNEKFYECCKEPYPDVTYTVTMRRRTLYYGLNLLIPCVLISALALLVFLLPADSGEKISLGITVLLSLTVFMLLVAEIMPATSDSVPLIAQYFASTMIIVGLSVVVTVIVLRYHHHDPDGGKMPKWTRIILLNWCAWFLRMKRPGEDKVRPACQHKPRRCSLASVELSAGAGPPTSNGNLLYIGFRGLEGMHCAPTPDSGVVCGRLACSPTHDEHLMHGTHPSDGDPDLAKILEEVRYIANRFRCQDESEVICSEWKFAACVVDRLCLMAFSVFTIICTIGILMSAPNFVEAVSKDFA
We label by threshold. Values of Ki strictly beneath 0.06 µM are fulfilled. Values of 0.06 µM and up are not fulfilled.

compound="N#Cc1ccc(Oc2cncc(C3CC4CCN3CC4)c2)cc1 (centres unmarked)" class_assignment=fulfilled
compound=CN1[C@@H]2CC[C@H]1C=C(c1cncc(Br)c1)C2 class_assignment="not fulfilled"
compound=CNCC/C=C/c1cccnc1 class_assignment="not fulfilled"

In the following, a different compound is considered.
For c1cncc(C2C3CCN2CC3)c1 (centres unmarked) , is the recorded Ki below the cut-off of 0.06 µM?
fulfilled

---

Consider the following molecules and their measured Emax readings.
- subject of test: hα7-nAChR (Homo sapiens, UniProt P36544)
- Sequence (P36544 23-502): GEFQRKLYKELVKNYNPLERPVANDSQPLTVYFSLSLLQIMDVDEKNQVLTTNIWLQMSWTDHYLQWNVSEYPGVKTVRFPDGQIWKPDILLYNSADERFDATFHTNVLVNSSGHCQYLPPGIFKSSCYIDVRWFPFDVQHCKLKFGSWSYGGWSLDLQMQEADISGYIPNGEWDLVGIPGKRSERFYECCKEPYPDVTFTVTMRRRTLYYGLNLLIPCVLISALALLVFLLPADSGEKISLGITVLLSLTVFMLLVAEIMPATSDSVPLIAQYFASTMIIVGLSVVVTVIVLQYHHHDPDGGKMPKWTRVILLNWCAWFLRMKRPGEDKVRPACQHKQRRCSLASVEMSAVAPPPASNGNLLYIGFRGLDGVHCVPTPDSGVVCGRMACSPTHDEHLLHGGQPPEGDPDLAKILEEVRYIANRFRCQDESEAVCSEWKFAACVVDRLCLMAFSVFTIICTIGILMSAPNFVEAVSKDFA
- procedure details: cell-based
- Format: cell-based
- condition label: GH4-C1, read-out: Efficacy α7

molecule="c1cncc(C2CCC3CCN2CC3)c1 (centres unmarked)" property_measured=Emax value_observed=106%
molecule="c1cncc(C2C3CCN2CC3)c1 (centres unmarked)" property_measured=Emax value_observed=108%
molecule="c1cnc2cc3c(cc2n1)[C@@H]1CNC[C@H]3C1 [Varenicline, reference compound]" property_measured=Emax value_observed=78%

Please look up its Emax: "CNCC/C=C/c1cccnc1"
17%

Please look up its Emax: "CN1[C@@H]2CC[C@H]1C=C(c1cncc(Br)c1)C2"
55%

---

- subject of test: α3β4*-nAChR (Mus musculus, UniProt Q8R493+Q8R4G9)
- Sequence (Q8R4G9 26-499): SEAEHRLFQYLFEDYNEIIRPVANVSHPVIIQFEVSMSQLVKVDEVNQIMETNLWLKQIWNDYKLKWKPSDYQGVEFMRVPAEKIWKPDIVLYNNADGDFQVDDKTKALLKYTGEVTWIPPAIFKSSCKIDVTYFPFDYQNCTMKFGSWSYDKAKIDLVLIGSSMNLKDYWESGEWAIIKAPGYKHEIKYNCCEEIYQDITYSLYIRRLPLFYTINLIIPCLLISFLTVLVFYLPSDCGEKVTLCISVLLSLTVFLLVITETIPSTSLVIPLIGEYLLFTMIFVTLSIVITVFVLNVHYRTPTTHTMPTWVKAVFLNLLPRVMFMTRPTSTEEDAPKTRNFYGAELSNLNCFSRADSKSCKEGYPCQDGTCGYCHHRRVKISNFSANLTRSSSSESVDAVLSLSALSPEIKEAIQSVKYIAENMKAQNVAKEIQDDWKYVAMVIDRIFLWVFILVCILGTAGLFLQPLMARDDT
- Sequence (Q8R493 21-495): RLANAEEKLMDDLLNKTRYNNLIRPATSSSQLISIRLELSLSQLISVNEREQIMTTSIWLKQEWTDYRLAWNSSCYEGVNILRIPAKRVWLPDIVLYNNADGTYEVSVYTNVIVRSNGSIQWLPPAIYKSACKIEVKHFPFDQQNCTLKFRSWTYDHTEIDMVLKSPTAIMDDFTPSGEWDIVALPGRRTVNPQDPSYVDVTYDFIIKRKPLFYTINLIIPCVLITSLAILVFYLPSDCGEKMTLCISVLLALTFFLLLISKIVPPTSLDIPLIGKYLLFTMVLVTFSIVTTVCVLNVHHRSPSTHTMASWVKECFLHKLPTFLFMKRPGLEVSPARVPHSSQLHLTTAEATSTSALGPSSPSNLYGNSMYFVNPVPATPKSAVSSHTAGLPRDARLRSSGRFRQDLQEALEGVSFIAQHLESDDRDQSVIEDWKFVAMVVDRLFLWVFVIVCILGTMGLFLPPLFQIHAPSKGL
- procedure details: [3H]-ACh release from IPN synaptosomes
- Assay type: biochemical
property measured: pKi
Just so you know, pKi here is -log10 of the concentration in molar units; reply with that number alone.

molecule="CNC(C)C/C=C/c1cncc(C#Cc2ccccc2)c1 (centres unmarked) [Compound 9]" property_measured=pKi value_observed=4.85

Here is the next item to consider.
Please look up its pKi: N#Cc1ccc(Oc2cncc(C3CC4CCN3CC4)c2)cc1 (centres unmarked) [Compound 7]
5.15

---

- subject of test: α6β2*-nAChR (Mus musculus, UniProt Q9ERK7+Q9R0W9)
- Sequence (Q9R0W9 31-494): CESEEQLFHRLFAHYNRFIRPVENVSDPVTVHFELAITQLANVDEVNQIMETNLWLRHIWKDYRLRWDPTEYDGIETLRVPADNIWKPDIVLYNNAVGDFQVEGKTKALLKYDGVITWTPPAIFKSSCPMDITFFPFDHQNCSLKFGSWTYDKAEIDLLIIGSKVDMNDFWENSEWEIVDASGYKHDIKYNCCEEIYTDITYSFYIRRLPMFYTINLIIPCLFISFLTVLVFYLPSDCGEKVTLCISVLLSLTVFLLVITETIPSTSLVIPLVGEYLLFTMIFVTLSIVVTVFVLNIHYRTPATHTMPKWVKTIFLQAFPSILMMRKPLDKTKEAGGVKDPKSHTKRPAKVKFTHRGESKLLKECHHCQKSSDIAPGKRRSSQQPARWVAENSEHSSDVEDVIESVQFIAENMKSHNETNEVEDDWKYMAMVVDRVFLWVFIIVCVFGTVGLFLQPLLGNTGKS
- Sequence (Q9ERK7 26-501): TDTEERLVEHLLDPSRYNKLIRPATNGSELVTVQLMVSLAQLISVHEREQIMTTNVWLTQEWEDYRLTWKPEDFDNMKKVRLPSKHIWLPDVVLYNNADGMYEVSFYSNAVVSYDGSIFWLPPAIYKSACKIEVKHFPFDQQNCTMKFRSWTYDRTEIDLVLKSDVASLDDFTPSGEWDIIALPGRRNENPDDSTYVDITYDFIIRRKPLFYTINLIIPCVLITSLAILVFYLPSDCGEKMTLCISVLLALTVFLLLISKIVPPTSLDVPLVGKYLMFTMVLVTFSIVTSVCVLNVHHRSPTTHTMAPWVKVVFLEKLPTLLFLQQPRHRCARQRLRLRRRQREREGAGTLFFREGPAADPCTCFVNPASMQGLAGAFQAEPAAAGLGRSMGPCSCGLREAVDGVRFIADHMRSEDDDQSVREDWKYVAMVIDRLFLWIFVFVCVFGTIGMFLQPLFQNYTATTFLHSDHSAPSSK
- Sequence (Q8BMN3 31-464 partner): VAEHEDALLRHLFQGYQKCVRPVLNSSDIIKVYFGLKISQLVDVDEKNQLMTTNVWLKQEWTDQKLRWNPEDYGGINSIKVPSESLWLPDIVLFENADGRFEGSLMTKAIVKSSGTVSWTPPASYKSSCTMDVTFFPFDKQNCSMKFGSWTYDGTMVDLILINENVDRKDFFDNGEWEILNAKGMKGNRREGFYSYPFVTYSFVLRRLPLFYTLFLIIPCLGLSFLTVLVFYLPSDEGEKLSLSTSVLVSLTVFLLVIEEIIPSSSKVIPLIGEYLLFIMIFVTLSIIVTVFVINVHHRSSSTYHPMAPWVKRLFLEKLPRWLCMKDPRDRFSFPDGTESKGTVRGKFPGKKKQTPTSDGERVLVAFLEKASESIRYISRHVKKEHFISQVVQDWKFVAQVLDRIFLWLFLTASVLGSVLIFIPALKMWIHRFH
- procedure details: α-CtxMII-sensitive [3H]-dopamine release from striatal synaptosomes
- Type: biochemical
Consider the following compounds and their measured Ki readings.
Provide only the numeric value, understood in nM.

Sample answers from the record:
compound="c1cncc(C2C3CC4CC(C3)CN2C4)c1 (stereo not shown) [Compound 4]" property_measured=Ki value_observed=570
compound="c1cncc(C2CCC3CCN2CC3)c1 (stereo not shown) [Compound 3]" property_measured=Ki value_observed=52
compound="CNC(C)C/C=C/c1cncc(C#Cc2ccccc2)c1 (stereo not shown) [Compound 9]" property_measured=Ki value_observed=4100

Here is the next item to consider.
Please look up its Ki: N#Cc1ccc(Oc2cncc(C3CC4CCN3CC4)c2)cc1 (stereo not shown) [Compound 7]
48

---

- subject of test: α6β2*-nAChR (Mus musculus, UniProt Q9ERK7+Q9R0W9)
- procedure details: α-CtxMII-sensitive [3H]-dopamine release from striatal synaptosomes
- Assay type: biochemical
- condition label: EC50 α6β2*, activation, α-CtxMII-sensitive DA release
property measured: EC50 (nM)
Provide only the numeric value, understood in nM.

compound="CN1[C@@H]2CC[C@H]1C=C(c1cncc(Br)c1)C2 [Compound 10]" property_measured=EC50 value_observed=117

Item: c1cncc(C2C3CCN2CC3)c1 (centres unmarked) [Compound 2] Test system: α6β2*-nAChR (Mus musculus, UniProt Q9ERK7+Q9R0W9) Read-out: EC50 Value: ?
50
